Data origin, for the record: ChEMBL document CHEMBL1125334

Endpoint: IC50. System: Type-1 angiotensin II receptor (Cavia porcellus, UniProt Q9WV26). Items follow.
Sequence (Q9WV26 whole entry): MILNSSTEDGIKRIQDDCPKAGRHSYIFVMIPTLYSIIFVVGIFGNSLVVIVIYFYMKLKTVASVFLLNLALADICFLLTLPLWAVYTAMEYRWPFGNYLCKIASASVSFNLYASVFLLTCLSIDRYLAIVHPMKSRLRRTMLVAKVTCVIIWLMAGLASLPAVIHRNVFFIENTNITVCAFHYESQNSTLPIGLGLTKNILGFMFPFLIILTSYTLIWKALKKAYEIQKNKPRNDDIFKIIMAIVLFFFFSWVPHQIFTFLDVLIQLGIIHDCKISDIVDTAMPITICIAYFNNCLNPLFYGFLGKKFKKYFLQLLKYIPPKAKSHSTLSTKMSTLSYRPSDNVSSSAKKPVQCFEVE
measured parameter: IC50 (nM)

c1ccc(-c2nnn[nH]2)c(-c2ccc(COc3ccnc4ccccc34)cc2)c1    6300
CCc1cc(OCc2ccc(-c3ccccc3-c3nnn[nH]3)cc2)c2cc(C#N)ccc2n1    360
CCc1cc(OCc2ccc(-c3ccccc3-c3nn[nH]n3)cc2)c2cc(OC)ccc2n1    22
CCc1cc(OCc2ccc(-c3ccccc3-c3nn[nH]n3)cc2)c2ccc(Cl)cc2n1    160
CCc1cc(OCc2ccc(-c3ccccc3-c3nnn[nH]3)cc2)c2cc(C(F)(F)F)ccc2n1    860
CCc1cc(OCc2ccc(-c3ccccc3-c3nnn[nH]3)cc2)c2c(C#N)cccc2n1    60
CCc1cc(OCc2ccc(-c3ccccc3-c3nnn[nH]3)cc2)c2cccc(Cl)c2n1    140
CCc1cc(OCc2ccc(-c3ccccc3-c3nnn[nH]3)cc2)c2c(C)cccc2n1    13
CCc1cc(OCc2ccc(-c3ccccc3-c3nn[nH]n3)cc2)c2ccc(C)cc2n1    140

###

# assayed target: Type-1 angiotensin II receptor (Cavia porcellus, UniProt Q9WV26)
List of IC50 values.
measured parameter: IC50 (nM)

CCCc1cc(OCc2ccc(-c3ccccc3C(=O)O)cc2)c2ccccc2n1    600
CCc1cc(OCc2ccc(-c3ccccc3-c3nn[nH]n3)cc2)c2cc(OCC(F)(F)F)ccc2n1    26
CCc1cc(OCc2ccc(-c3ccccc3-c3nnn[nH]3)cc2)c2ccc(OC)cc2n1    220

###

Catalogue of ED50 values
# assayed target: Angiotensin II receptor (Rattus norvegicus) (UniProt P29089+P25095+P35351)
# test description: Intravenous administration to conscious rats for inhibition of pressor response induced by infusion of AII (angiotensin-II).
# Type: functional, organism-based
measured parameter: ED50

CCc1cc(OCc2ccc(-c3ccccc3-c3nn[nH]n3)cc2)c2cc(C(F)(F)F)ccc2n1    > 5 mg/kg
CCc1cc(OCc2ccc(-c3ccccc3-c3nn[nH]n3)cc2)c2c(Cl)cccc2n1    > 5 mg/kg
Cc1ccc2nc(C)cc(OCc3ccc(-c4ccccc4-c4nn[nH]n4)cc3)c2c1    > 5 mg/kg
CCc1cc(OCc2ccc(-c3ccccc3-c3nn[nH]n3)cc2)c2ccc(C)cc2n1    > 5 mg/kg
CCc1cc(OCc2ccc(-c3ccccc3-c3nn[nH]n3)cc2)c2cccc(C(F)(F)F)c2n1    > 5 mg/kg
CCc1cc(OCc2ccc(-c3ccccc3-c3nn[nH]n3)cc2)c2cc(C(=O)OC)ccc2n1    2.1 mg/kg
CCc1cc(OCc2ccc(-c3ccccc3-c3nn[nH]n3)cc2)c2ccc(C#N)cc2n1    > 5 mg/kg
CCc1cc(OCc2ccc(-c3ccccc3-c3nn[nH]n3)cc2)c2cc(OC(C)C)ccc2n1    0.18 mg/kg
CCc1cc(OCc2ccc(-c3ccccc3-c3nn[nH]n3)cc2)c2ccc(OC)cc2n1    > 5 mg/kg
CCc1cc(OCc2ccc(-c3ccccc3-c3nn[nH]n3)cc2)c2cc(OC)ccc2n1    0.32 mg/kg
Cc1cc(OCc2ccc(-c3ccccc3-c3nn[nH]n3)cc2)c2cccc(C)c2n1    > 5 mg/kg
CCc1cc(OCc2ccc(-c3ccccc3-c3nn[nH]n3)cc2)c2cc(C#N)ccc2n1    > 5 mg/kg
CCc1cc(OCc2ccc(-c3ccccc3-c3nn[nH]n3)cc2)c2cc(OCCF)ccc2n1    0.34 mg/kg
CCc1cc(OCc2ccc(-c3ccccc3-c3nn[nH]n3)cc2)c2ccc(Cl)cc2n1    > 5 mg/kg
CCc1cc(OCc2ccc(-c3ccccc3-c3nn[nH]n3)cc2)c2cc(OCC(F)(F)F)ccc2n1    0.71 mg/kg
CCCCc1nc(Cl)c(CO)n1Cc1ccc(-c2ccccc2-c2nnn[nH]2)cc1    0.65 mg/kg
Cc1cc(OCc2ccc(-c3ccccc3-c3nn[nH]n3)cc2)c2ccccc2n1    0.73 mg/kg
CCc1cc(OCc2ccc(-c3ccccc3-c3nn[nH]n3)cc2)c2cccc(OC)c2n1    > 5 mg/kg
